List of melting point values.

Consider the worked cases shown below.
# COMPOUND, melting point
rows = [
    ("COc1ccc(/C=C/C(=O)C(C)(CC2CCC2)C(=O)/C=C/c2ccc(OC)c(OC)c2)cc1OC [Compound 2]", "161 to 162 °C"),
    ("CCOC(=O)CCC(=O)C=Cc1ccc(O)c(OC)c1 [Monomer 6]", "55 to 56 °C"),
    ("COc1ccc(/C=C/C(=O)C(F)(CC2CCC2)C(=O)/C=C/c2ccc(OC)c(OC)c2)cc1OC [Compound 14]", "98 to 100 °C"),
    ("COc1ccc(/C=C/C(=O)C(F)(CC2CC2)C(=O)/C=C/c2ccc(OC)c(OC)c2)cc1OC [Compound 13]", "104 to 105 °C"),
]

Proceeding to the next compound to report its melting point.
Input line: Look up melting point: COc1ccc(/C=C/C(=O)C(C)(CC2CCCCC2)C(=O)/C=C/c2ccc(OC)c(OC)c2)cc1OC [Compound 5]
Output line: 128 to 129 °C

###

TEST TARGET: Androgen Receptor (AR) protein expression (Homo sapiens, UniProt P10275, H875Y, form not given)
Sequence (P10275 whole entry H875Y, form open): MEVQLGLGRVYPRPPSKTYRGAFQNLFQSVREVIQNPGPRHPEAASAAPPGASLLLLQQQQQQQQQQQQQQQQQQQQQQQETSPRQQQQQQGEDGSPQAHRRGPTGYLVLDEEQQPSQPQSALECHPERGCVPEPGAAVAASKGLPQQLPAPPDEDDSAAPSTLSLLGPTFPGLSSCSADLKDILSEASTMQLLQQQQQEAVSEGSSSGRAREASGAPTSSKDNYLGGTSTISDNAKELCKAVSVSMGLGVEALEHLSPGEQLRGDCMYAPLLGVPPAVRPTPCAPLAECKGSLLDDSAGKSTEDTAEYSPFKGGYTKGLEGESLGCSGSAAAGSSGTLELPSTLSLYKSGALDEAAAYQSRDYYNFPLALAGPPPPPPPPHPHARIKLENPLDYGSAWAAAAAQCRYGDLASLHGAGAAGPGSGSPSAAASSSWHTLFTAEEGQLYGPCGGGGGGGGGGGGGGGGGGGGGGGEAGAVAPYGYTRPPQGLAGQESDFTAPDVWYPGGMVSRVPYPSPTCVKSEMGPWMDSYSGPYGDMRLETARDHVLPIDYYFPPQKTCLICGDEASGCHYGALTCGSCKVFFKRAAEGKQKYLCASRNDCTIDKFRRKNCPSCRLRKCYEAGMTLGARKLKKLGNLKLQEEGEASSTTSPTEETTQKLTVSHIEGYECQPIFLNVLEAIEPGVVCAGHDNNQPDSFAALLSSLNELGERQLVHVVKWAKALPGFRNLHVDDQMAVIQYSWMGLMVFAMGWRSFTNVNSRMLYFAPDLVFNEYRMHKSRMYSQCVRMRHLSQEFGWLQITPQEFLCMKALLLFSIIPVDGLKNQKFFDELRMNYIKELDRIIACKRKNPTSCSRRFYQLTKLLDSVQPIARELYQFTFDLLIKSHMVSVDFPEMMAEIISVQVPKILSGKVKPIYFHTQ
TEST SUMMARY: Western Blot analysis of AR protein expression in CWR22Rv1 cells
RUN CONDITIONS: read-out: Reduction of AR expression IC50 (μM) 24 h, Western blotting, 24 h post-incubation
ENDPOINT NAME: IC50 (µM)
Numeric answer only, unit µM assumed.

Input line: Look up IC50: COc1ccc(C=CC(=O)C(CC2CCCC2)=C(O)C=Cc2ccc(OC)c(OC)c2)cc1OC [Compound 3]
Output line: 2.8

###

Tested on: CWR22Rv1 cells (human prostate cancer)
TEST SUMMARY: MTT cell growth assay, CWR22Rv1 cells
Assay type: cell-based
RUN CONDITIONS: Homo sapiens, 120 h, 5 days, read-out: Inhibition of Tumor cells growth IC50
Experimental: The MTT cell proliferation assay was applied in the present invention to detect the capability of compounds to suppress or inhibit prostate cancer cells growth. […] Briefly, 1×10^3 LNCaP or CWR22Rv1 cells suspended in complete medium were plated into each well of a 96-well Microtest III tissue culture plate (Falcon, N.J.). […] The relative quantity of enzyme activity from each well was measured based on absorbance read at a wavelength of 450 nm using a Bio-RAD BenchMark microplate reader. […]
List of pIC50 values.
To interpret pIC50, take it as minus log10 of a concentration measured in moles per litre.

# MOL, REPORTED MEASUREMENT
records = [
    ("COc1ccc(/C=C/C(=O)C(C)(CC2CCCCC2)C(=O)/C=C/c2ccc(OC)c(OC)c2)cc1OC", 5.34),
]

Input line: Look up pIC50: COc1ccc(/C=C/C(=O)C(C)(CC2CC2)C(=O)/C=C/c2ccc(OC)c(OC)c2)cc1OC
Output line: 5.62

###

Tested on: CWR22Rv1 cells (human prostate cancer)
TEST SUMMARY: MTT cell growth assay, CWR22Rv1 cells
Format: cell-based
RUN CONDITIONS: 5 days, read-out: Inhibition of Tumor cells growth IC50
Method: The MTT cell proliferation assay was applied in the present invention to detect the capability of compounds to suppress or inhibit prostate cancer cells growth. […] Briefly, 1×10^3 LNCaP or CWR22Rv1 cells suspended in complete medium were plated into each well of a 96-well Microtest III tissue culture plate (Falcon, N.J.). […] The relative quantity of enzyme activity from each well was measured based on absorbance read at a wavelength of 450 nm using a Bio-RAD BenchMark microplate reader. […]
ENDPOINT NAME: IC50
Kindly format the answer as number then unit.

Input line: Look up IC50: CCCCC(F)(C(=O)C=Cc1ccc(OC)c(OC)c1)C(=O)C=Cc1ccc(OC)c(OC)c1 (stereo not shown)
Output line: 4.7 µM
